# Test system: Sonic hedgehog protein (Shh)
# assay: Sonic hedgehog microarray binding compounds – biochemical, small-molecule microarray, 635/667 nm fluorescence, primary screen (AID 1151);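 further: Shh protein binding to compounds spotted on small-molecule microarray slides; score combines spot fluorescence intensity with signal-to-noise across triplicate slides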
# measurement.parameters: 635 nm fluorescence, higher = more signal
Criterion: composite z-score meeting or surpassing 0.3. Met: yes (1). Not met: no (0).

Worked set:
compound	label
C=CCOC(=O)[C@@H]1[C@H]2C(=O)O[C@H](c3ccccc3)[C@H](c3ccccc3)N2[C@H](c2ccc(OCCOC(=O)[C@H]3C[C@H]4C(=O)N[C@@H](Cc5ccccc5)C(=O)N4[C@H]3c3ccc(O)cc3)cc2)[C@@]12C(=O)Nc1ccc(I)cc12	yes (1)
CS(=O)(=O)CCOC(=O)C1=CC(c2ccc(CO)cc2)=CC(c2cccs2)N(Cc2cccc(OC(F)(F)F)c2)C=C1C(=O)OCCS(C)(=O)=O (stereo not given)	yes (1)
O=C1c2ccccc2[C@](Cc2ccccc2I)(C(=O)O)[C@H](c2ccc(CO)cc2)N1Cc1ccccc1C(F)(F)F	no (0)
COCCOC(=O)N1C(=O)[C@@]2(c3cc(C#Cc4ccc(OC)cc4)ccc31)[C@H](c1ccc(O)cc1)N1[C@H](c3ccccc3)[C@H](c3ccccc3)OC(=O)[C@H]1[C@@H]2C(=O)N1CCN(c2ncccn2)CC1	yes (1)

Switching to the query record.
Could you please find out whether `COc1ccc([Si](C)(C)[C@H]2[C@H](CCO)O[C@@]3(C(=O)N(Cc4cccc(N5C(=O)c6cccc7cccc5c67)c4)c4ccccc43)[C@@H]2C)cc1` has composite z-score that meets 0.3 or exceeds it?
yes (1)
